Attribution: patent US20120172285A1

target: recombinant BCL-wΔC (UniProt Q92843); experiment: fluorescence polarization (FPA), FITC-SAHB with recombinant anti-apoptotic protein [upper table]
Sequence (Q92843 1-164, stated change not applied): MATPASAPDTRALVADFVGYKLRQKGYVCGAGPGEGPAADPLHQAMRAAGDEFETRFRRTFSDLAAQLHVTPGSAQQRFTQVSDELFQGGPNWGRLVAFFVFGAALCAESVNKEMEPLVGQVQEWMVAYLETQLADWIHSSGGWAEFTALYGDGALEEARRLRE
Bridges are numbered along the chain shown (N, C = ends). Where no end group is shown, it is not given here. [ ]: non-standard residue; d: D form. The star is where a group is joined. FITC = O=C1OC2(c3ccc(O)cc3Oc3cc(O)ccc32)c2ccc(NC(=S)*)cc21; S5 = C=CCCC[C@](C)(N)C(=O)O; Nle = CCCC[C@H](N)C(=O)O
endpoint.label: pKd
Value format note: pKd is -log10 of concentration (mol/L); just state the number.

Request: # get_value(readout='pKd', item= {FITC}-RLAEVSAVLL[S5]LGD[S5]LE[Nle]IR (staple 11-15) [BOK SAHB] )
Result: 6.38
